- target_of_assay: Tubulin purified from pig brains (Sus scrofa, UniProt P02550+P02554)
- Construct: Tubulin is purified from pig brains according to published methods
- Sequence (P02550 whole entry): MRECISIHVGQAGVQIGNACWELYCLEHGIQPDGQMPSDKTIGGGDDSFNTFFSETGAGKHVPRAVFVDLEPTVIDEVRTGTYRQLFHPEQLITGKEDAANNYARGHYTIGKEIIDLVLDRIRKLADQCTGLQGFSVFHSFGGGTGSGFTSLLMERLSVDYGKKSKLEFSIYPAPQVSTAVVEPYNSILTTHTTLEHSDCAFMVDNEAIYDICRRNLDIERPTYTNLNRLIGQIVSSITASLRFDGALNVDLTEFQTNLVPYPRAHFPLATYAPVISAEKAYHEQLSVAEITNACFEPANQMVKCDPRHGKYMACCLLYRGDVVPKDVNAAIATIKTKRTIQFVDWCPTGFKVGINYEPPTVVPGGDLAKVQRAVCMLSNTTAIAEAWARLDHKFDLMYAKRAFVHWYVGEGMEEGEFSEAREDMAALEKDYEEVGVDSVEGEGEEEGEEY
- Sequence (P02554 whole entry): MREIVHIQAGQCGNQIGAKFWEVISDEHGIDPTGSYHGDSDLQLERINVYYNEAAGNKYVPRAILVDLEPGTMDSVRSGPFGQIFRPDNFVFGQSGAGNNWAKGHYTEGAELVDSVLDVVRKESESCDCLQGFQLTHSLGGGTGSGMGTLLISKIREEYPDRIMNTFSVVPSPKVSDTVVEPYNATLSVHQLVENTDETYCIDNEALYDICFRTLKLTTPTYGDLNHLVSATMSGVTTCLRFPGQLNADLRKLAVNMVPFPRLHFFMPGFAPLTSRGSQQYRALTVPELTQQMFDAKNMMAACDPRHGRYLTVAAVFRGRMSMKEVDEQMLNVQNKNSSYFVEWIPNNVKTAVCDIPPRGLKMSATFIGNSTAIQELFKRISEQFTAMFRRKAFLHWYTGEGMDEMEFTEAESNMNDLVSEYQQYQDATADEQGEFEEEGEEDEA
- assay_protocol: Assessment of the inhibition of tubulin polymerization (turbidimetry at 350 nm)
- experimental_setup: concentration which inhibits the rate of polymerization by 50%; tubulin 1 mg/ml, 37° C.; read-out: Inhibition of tubulin polymerization IC 50
Structures can show the parent of a compound that is named as a salt.
measurement_label: IC50 (nM)
Just the number in nM, nothing appended.

Need IC50 of COc1cc(OC)cc(N2CCN(C(=O)c3nc(S)[nH]c3-c3ccccc3)CC2)c1 [Example 20] , thanks. 700

Same question, COc1cc(OC)cc(N2CCN(C(=O)c3cn(Cc4cscn4)cc3-c3ccccc3)CC2)c1 [Example 45] this time 4850

Now give it for COc1cc(OC)cc(N2CCN(C(=O)c3ccn(CCO)c3-c3ccccc3)CC2)c1 [Example 53] too. 810

What do you get for NC(=O)c1cccc(N2CCN(C(=O)c3c(-c4ccccc4)ccn3CC(=O)O)CC2)c1 [Example 73] ? 18400

Would you kindly repeat that for N#Cc1cccc(N2CCN(C(=O)c3ccn(CCO)c3-c3ccccc3)CC2)c1 [Example 81] ? 2400

How about COc1cc(OC)cc(N2CCN(C(=O)c3cncn3-c3ccccc3)CC2)c1 [Example 11, hydrochloride] ? 2400
